Biological target: Cellular tumor antigen p53 (Homo sapiens) (UniProt P04637)
Sequence (P04637 whole entry, looked up): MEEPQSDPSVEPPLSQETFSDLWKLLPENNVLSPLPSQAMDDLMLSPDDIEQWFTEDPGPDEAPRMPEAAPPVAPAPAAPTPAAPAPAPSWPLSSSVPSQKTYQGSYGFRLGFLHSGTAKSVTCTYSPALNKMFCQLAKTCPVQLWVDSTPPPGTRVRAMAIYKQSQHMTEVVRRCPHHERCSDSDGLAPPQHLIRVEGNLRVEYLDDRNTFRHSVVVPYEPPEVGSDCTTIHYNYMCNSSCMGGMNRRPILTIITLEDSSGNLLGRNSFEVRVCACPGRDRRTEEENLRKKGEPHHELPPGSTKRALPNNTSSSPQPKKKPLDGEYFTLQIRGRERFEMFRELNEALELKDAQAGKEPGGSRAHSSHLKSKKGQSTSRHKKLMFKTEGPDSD
Assay: Primary qHTS for small molecule compounds that upregulate eGFP-tagged delta133p53alpha (in N-terminal) cells. (AID 2060322); further: potency means the concentration at half of the fitted maximal effect; nearly all actives have a fitted effect of over 75% in size
Details: NCI-H358 eGFP-delta133p53alpha fluorescence, 24 h
Records with an inconclusive call do not appear. Active and inactive are the calls of the source. The call rests on the fitted dose curve; in most records, active means well fitted activation curve with a large enough effect; inconclusive means small, poorly fitted or top-dose-only effect; inactive means no such curve, though single readings can be large or run the other way. Residues, ends and D or L forms follow the SMILES beside them. *: point of attachment. Cbz = O=C(OCc1ccccc1)*
Potency values, listed per item
assay_metric: Potency

[
  {
    "molecule": "CN1CCC(Nc2nc(Nc3ccc(Oc4ccccc4)cc3)c3c(=O)[nH]cc(Br)c3n2)CC1",
    "reported": "10.7 µM (active)"
  },
  {
    "molecule": "Cc1cccc2c1NC(=O)C2(c1ccc(O)cc1)c1ccc(O)cc1",
    "reported": "0.213 µM (active)"
  },
  {
    "molecule": "C/C=C(\\C)C(=O)O[C@H]1C=CC(=O)O[C@H]1/C=C/[C@H](O)[C@@H](C)O",
    "reported": "21.3 µM (active)"
  },
  {
    "molecule": "COc1cc2nc(N3CCCCC3)nc(NC3CCN(C)CC3)c2cc1OC",
    "reported": "38.5 µM (active)"
  },
  {
    "molecule": "CC(C)C[C@@H](C=O)NC(=O)[C@H](CC(C)C)NC(=O)[C@H](CC(C)C)NC(=O)OCc1ccccc1 (Cbz-Leu-Leu-Leu-aldehyde)",
    "reported": "2.73 µM (active)"
  },
  {
    "molecule": "Oc1ccc(-c2cnc3ccc(NCc4ccco4)nn23)cc1",
    "reported": "26.9 µM (active)"
  },
  {
    "molecule": "COC1CC(=O)C23C(=O)NC(Cc4c[nH]c5ccccc45)C2C(C)C2(C)OC2C3/C=C/CC(C)CC1O (centres undefined)",
    "reported": "13.1 µM (active)"
  },
  {
    "molecule": "C/C=C/C=C/c1cc2c(C=O)c(O)c(CC=C(C)C)cc2o1",
    "reported": "26.9 µM (active)"
  },
  {
    "molecule": "CC(C)Oc1cc(Nc2nc(N[C@@H](C)c3ccc(F)cn3)ncc2Cl)[nH]n1",
    "reported": "24.3 µM (active)"
  }
]
